B1: BTBD1 (parent)
chain: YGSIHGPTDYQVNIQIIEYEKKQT

# Variants of: B1
# assay_summary: protein stability index of a GFP-peptide fusion (GPS, HEK-293T) (PSI 1-6); higher = more stable;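 note: lentivirally expressed fusions sorted by FACS into six bins by GFP to DsRed ratio, PSI derived from sequencing read proportions per bin multiplied by bin number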
# experimental_parameters: c terminus: a fixed tail appended
I'd be grateful if you could share measured protein stability index for these entries.
Give bare numbers.

These recorded examples may help you get a feel for the data.
I17G :: 3.31
I14E :: 3.46
K21E :: 2.7
V12N :: 4.15
I4G :: 2.16

Would you be so kind as to report protein stability index for each listed record?
1. Y19E
2. I14S
3. I4P
4. Y19I

1. 4.05
2. 3.08
3. 3.1
4. 2.39

Would you be so kind as to report protein stability index for each listed record?
1. I16A
2. E20C
3. G2Q
4. H5D
5. Y19M
6. Y1D
7. Q23G
8. Q11T

1: 3.8; 2: 1.66; 3: 2.59; 4: 3.09; 5: 3.03; 6: 3.93; 7: 2.76; 8: 1.55

Would you be so kind as to report protein stability index for each listed record?
1. K22Q
2. T8D
3. V12Y
4. Q15E
5. I14D

[2.75, 3.66, 2.87, 2.66, 3.75]

Would you be so kind as to report protein stability index for each listed record?
1. E20T
2. H5V
3. E18W
4. I4M
5. T8W
6. D9Y
7. Y19A

1. 2.25
2. 2.04
3. 3.17
4. 2.41
5. 3.36
6. 2.08
7. 3.19

Would you be so kind as to report protein stability index for each listed record?
1. I4D
2. I14Y
3. H5L
4. Y10S
5. Y10I
6. D9T
7. V12T
8. N13D

1: 4.08; 2: 3.35; 3: 2.88; 4: 4.16; 5: 2.44; 6: 2.42; 7: 3.72; 8: 2.59

Would you be so kind as to report protein stability index for each listed record?
1. Q15W
2. T24F

[4.17, 1.84]

Would you be so kind as to report protein stability index for each listed record?
1. P7L
2. Y1K
3. K22I
4. P7Y

1: 2.21; 2: 3.15; 3: 1.56; 4: 1.75

Would you be so kind as to report protein stability index for each listed record?
1. K21Q
2. H5F
3. T24C

2.52
1.99
2.16
